target entity: UniProt P11229
Sequence (P11229 whole entry): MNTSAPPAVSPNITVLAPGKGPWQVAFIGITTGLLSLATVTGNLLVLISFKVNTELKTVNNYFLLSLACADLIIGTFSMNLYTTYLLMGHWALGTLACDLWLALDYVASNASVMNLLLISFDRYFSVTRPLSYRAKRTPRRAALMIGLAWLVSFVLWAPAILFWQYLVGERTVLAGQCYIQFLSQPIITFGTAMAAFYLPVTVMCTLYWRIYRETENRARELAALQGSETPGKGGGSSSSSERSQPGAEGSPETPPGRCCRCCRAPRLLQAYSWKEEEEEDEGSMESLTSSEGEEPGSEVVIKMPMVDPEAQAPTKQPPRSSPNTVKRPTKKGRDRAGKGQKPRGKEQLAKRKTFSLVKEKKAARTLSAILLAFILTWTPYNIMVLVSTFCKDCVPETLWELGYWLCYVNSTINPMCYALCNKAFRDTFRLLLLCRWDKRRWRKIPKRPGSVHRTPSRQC
test details: Alphascreen Surefire phospho-ERK1/2 functional assay, M1
Assay type: cell-based
experimental conditions: CHO, read-out: % Emax cf. ACh, M1, CHO cells stably expressing human M1; Emax compared with ACh
assay metric: Emax (%)

compound="CCOC(=O)N1CCCC(N2CCC(C(CCC(C)C)=NOC)CC2)CC1 (single isomer, unassigned) [1-6 Isomer 2 (racemic)]" reported_value=96
compound="CCCC(=NOC)C1CCN(C2CC3(CCN(C(=O)OCC)C3)C2)CC1 (single isomer, unassigned) [2-3 Isomer 4]" reported_value=87
compound="CCCC(=NOC)C1CCN([C@H]2CCCN(C(=O)OCC)CC2)CC1 (single isomer, unassigned) [(S)-1-3 Isomer 2]" reported_value=93
compound="CCCON=C(CC)C1CCN(C2CCCN(C(=O)OCC)CC2)CC1 (single isomer, unassigned) [1-11 Isomer 1 (racemic)]" reported_value=107
compound="CCOC(=O)N1CCC2(CC(N3CCC(C(C)=NOC)CC3)C2)C1 (single isomer, unassigned) [2-1 Mixture of isomers 2]" reported_value=89
compound="CCOC(=O)N1CCCC(N2CCC(C(C#N)=NOC(C)C)CC2)CC1 (mixture of isomers) [4-1 Mixture of isomers]" reported_value=109

Data provenance is patent US11208396B2.
